Quick list: pEC50 per entry.
- assay.system: sIGF1R (Homo sapiens)
- Construct: hexahistidine (C); purchased R&D Systems
- test.name: ELISA relative binding affinity of PG-peptide fusions for sIGF1R
- stated.conditions: PG-peptide fusion, ELISA on 2 μg/ml coated sIGF1R, one site binding equation
pEC50 is defined as minus the log10 of a concentration measured in mol/L.

Examples from the recorded data:
>>> print(df.to_string())
                                  substance  measured
0  12 (SNCPPLDMRLTELCVM; IGF1R binding peptide from pIX library) [Clone 12]      5.74
1  10 (LSCYDPTLRTLYCHV; IGF1R binding peptide from pIX library) [Clone 10]      5.37
2  16 (AGCPSPMPPVDPGFYSAIVQLCRE; IGF1R binding peptide from pIX library) [Clone 16]      5.09

Here is another substance to look at.
Sample 11 (HTCFYPTLMPPELCFD; IGF1R binding peptide from pIX library) [Clone 11] , system: sIGF1R (Homo sapiens). Its pEC50 is 5.92
